Target: T1, human CD20 antigen (human, UniProt P11836 1-297)
T1 construct: whole, on cells; also called CD20/CHO cells; CD20 on Raji cells
T1 sequence (looked up): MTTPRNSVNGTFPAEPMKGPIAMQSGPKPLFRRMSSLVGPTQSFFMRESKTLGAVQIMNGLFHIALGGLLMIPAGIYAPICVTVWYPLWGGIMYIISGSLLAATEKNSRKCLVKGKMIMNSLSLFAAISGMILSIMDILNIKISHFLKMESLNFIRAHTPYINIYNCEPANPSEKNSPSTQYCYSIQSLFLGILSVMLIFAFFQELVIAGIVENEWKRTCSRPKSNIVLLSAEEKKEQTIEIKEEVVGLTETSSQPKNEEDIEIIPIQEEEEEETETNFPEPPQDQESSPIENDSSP
Experiment: CD20/CHO cell-ELISA, antibody at 100 ng/ml
OBSERVATION TYPE: A492 (A492)
Please give a number only; it is taken to be in A492.

BINDER	OBSERVATION TYPE	UNITS SYMBOL	MEASURED
Rituximab (c2B8) (antibody, V domains shown) VH: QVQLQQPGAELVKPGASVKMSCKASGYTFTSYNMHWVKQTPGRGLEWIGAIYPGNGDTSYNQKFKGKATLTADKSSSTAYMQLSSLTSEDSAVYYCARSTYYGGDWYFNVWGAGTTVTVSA VL: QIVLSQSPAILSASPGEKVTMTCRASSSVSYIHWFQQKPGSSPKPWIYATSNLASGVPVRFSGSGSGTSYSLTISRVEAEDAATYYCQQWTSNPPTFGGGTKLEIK	A492	A492	2.15

Query: GET /values?readout=A492&item= chimeric anti-CD20 monoclonal antibody c1K1228 (antibody, V domains shown, Murine variable regions fused to human immunoglobulin H chain and L chain (kappa) constant regions of vector pNOW-Ab) VH: QVQLQQPGAELVKPGASVKVSCKASGFTFTSYNLHWVKQTPGQGLVWIGAIYPGNGDTSYNQKFRGKATLTADISSSTAYMQLSSLTSEDSAVYYCARYYYGYDAMDYWGQGTSVTVSS VL: EIILTQSPTTMAASPGEKITITCSASSSISSYYLRWYQQKPGFSPKVLIYRTSNLASGVPARFSGSGSGTSYSLTIGTMEAEDVATYYCQQGNTVPLTFGSGTKLEIK
Response: 2.23

Query: Sample chimeric anti-CD20 monoclonal antibody c1K1712 (antibody, V domains shown, Murine variable regions fused to human immunoglobulin H chain and L chain (kappa) constant regions of vector pNOW-Ab) VH: QVQLQQPGAELVKPGASVKMSCKASGFTFTSYNLHWVKQTPGQGLEWIGAIYPGSGDTSYNQQFKGKATLTADKSSNTAYMQLNSLTSEDSAVYCCARSAMISTGNWYFDYWGQGTTLTVSS VL: QIVLSQSPAILSASPGEKVTMTCRASSSVSYMDWYQQKPGSSPKPWIYATSNLASGVPARFSGSGSGTSYSLTISRVEAEDTATYYCQQWTFNPPTFGSGTKLEIK — what was its A492?
Response: 2.29

Query: Given the entry chimeric anti-CD20 monoclonal antibody c1K1736 (antibody, V domains shown, Murine variable regions fused to human immunoglobulin H chain and L chain (kappa) constant regions of vector pNOW-Ab) VH: QVQLQQPGAELVKPGASVKMSCKASGYTFTTYNLHWVKQTPGQGLEWIGGIYPGNGDTSYNQKFKVKATLTADKSSNTAYMQLSSLTSEDSAVYYCARWIYYGNYEGTLDYWGQGTSVTVSS VL: QIVLSQSPAILSSSPGEKVTMTCRASSSVSYMLWYQQKPGSSPEPWIYATSNLASGVPARFSGGGSGTSYSLTISRVEAEDAATYYCQQWTFNPPTFGGGTKLEIK , report its measured A492.
Response: 2.43

Query: Request the reported A492 associated with chimeric anti-CD20 monoclonal antibody c1K0924 (antibody, V domains shown, Murine variable regions fused to human immunoglobulin H chain and L chain (kappa) constant regions of vector pNOW-Ab) VH: QVQLQQPGAELVKPGASVKMSCKASGYTFTSYNIHWVKQTPGQGLEWIGAIYPGNGDTSYNQKFKGKATLTSDKSSSTAYMQLSSLTSEDSAVYYCARMSTMITGFDYWGQGTTLTVSS VL: QIVLSQSPAILSASPGEKVTMTCRASSSVSYMHWYQQRPGSSPKPWIYATSNLASGVPARFSGSGSGTSYYFTISRVEAEDAATYYCQQWNSNPPTHGGGTKLEIK
Response: 1.42

Query: Data request, read-out A492, for chimeric anti-CD20 monoclonal antibody c1K1422 (antibody, V domains shown, Murine variable regions fused to human immunoglobulin H chain and L chain (kappa) constant regions of vector pNOW-Ab) VH: QVQLQQPGAELVKPGASVKMSCRASGYTFTNYNMHWIKQTPGQGLEWIGAIYPGSGDTSYNRKFKGKATLTADTSSSTAYMQFSSLTSADSAVYYCARFTYYYGGTYGAMDYWGQGTSVTVSL VL: QIVLTQSPPIMSASLGEEITLTCSASSRVSYMLWYQQKSGTSPKLLIYSTSNLASGVPSRFSGSGSGTFYSLTISSVEAEDAADYYCHQWTSNPCTFGGGTKLEIK
Response: 1.92
